meta.source: ChEMBL document CHEMBL3351928

assay system: High affinity cGMP-specific 3',5'-cyclic phosphodiesterase 9A (Homo sapiens)
Sequence (O76083 whole entry): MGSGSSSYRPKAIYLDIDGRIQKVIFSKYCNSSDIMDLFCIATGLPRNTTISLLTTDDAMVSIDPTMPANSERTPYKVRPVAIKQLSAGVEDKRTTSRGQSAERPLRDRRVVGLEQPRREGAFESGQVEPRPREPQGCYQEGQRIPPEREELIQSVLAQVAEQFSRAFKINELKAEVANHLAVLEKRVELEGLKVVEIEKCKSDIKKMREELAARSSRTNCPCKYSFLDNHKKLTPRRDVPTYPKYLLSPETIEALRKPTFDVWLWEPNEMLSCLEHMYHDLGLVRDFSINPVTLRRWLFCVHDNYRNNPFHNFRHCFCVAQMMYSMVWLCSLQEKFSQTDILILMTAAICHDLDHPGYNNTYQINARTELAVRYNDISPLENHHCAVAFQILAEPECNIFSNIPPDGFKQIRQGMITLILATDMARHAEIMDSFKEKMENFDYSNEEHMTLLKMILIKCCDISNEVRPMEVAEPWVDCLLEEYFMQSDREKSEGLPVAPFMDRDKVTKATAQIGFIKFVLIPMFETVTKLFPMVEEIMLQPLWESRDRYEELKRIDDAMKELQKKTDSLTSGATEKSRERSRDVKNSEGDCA
assay info: Inhibition of PDE9 (unknown origin)
pIC50: −log10 of the molar value.

>  <mol smiles>
CC(=O)N1CCC(c2nccnc2Oc2ccc(C(=O)c3nc4ccccc4[nH]3)cc2)CC1

>  <pIC50>
< 4.52

$$$$

====

System: Rattus norvegicus
assay info: AUC in rat at 2 mg/kg, iv
Format: ADME, organism-based, Plasma
Design: dose 2 mg/kg, route intravenous
measurement context: in vivo

>  <mol smiles>
CC(=O)N1CCC(c2cccnc2Oc2ccc(C(=O)c3nc4ccccc4[nH]3)cc2)CC1

>  <AUC>
1.62 µM·h

$$$$

====

assay info: Clearance in non-human primates at 0.5 mg/kg, iv
Assay type: ADME, organism-based
Set-up: dose 0.5 mg/kg, route intravenous
measurement context: monkey, in vivo

>  <mol smiles>
CC(=O)N1CCC(c2cccnc2Oc2ccc(C(=O)c3nc4ccccc4[nH]3)cc2)CC1

>  <unit descriptor>
mL/min/kg

>  <clearance>
13.7

$$$$
>  <mol smiles>
CC(=O)N1CCC(c2nccnc2Oc2ccc(C(=O)c3nc4ccccc4[nH]3)cc2)CC1

>  <unit descriptor>
mL/min/kg

>  <clearance>
5.67

$$$$

====

assay info: Metabolic stability in rat liver microsomes assessed as clearance at 1 uM in presence of NADPH at 37 degC incubated for 30 mins
Type: ADME
measurement context: read-out: CLH

>  <mol smiles>
CC(=O)N1CCC(c2nccnc2Oc2ccc(C(=O)c3nc4ccccc4[nH]3)cc2)CC1

>  <modifier>
=

>  <microsomal CLint at 1 µM (µL/min/mg)>
41

$$$$
>  <mol smiles>
O=C(c1ccc(Oc2ncccc2C2CCOCC2)cc1)c1nc2ccccc2[nH]1

>  <modifier>
>

>  <microsomal CLint at 1 µM (µL/min/mg)>
399

$$$$
>  <mol smiles>
CC(=O)N1CCC(c2cccnc2Oc2ccc(C(=O)c3nc4ccccc4[nH]3)cc2)CC1

>  <modifier>
=

>  <microsomal CLint at 1 µM (µL/min/mg)>
463

$$$$
>  <mol smiles>
O=C(c1ccc(Oc2nccnc2C2CCOCC2)cc1)c1nc2ccccc2[nH]1

>  <modifier>
=

>  <microsomal CLint at 1 µM (µL/min/mg)>
119

$$$$

====

assay info: Oral bioavailability in dog at 1 mg/kg
Type: ADME, organism-based, Canis lupus familiaris
measurement context: in vivo
attribute measured: bioavailability (%)

>  <mol smiles>
CC(=O)N1CCC(c2nccnc2Oc2ccc(C(=O)c3nc4ccccc4[nH]3)cc2)CC1

>  <attribute measured>
bioavailability

>  <unit descriptor>
%

>  <readout value>
72

$$$$
